Numbers sourced from ChEMBL document CHEMBL5154693.

Each entry below lists one item and its recorded IC50 value.
EXPERIMENTAL_SYSTEM: UniProtKB Q9UBN7
Sequence (Q9UBN7 whole entry): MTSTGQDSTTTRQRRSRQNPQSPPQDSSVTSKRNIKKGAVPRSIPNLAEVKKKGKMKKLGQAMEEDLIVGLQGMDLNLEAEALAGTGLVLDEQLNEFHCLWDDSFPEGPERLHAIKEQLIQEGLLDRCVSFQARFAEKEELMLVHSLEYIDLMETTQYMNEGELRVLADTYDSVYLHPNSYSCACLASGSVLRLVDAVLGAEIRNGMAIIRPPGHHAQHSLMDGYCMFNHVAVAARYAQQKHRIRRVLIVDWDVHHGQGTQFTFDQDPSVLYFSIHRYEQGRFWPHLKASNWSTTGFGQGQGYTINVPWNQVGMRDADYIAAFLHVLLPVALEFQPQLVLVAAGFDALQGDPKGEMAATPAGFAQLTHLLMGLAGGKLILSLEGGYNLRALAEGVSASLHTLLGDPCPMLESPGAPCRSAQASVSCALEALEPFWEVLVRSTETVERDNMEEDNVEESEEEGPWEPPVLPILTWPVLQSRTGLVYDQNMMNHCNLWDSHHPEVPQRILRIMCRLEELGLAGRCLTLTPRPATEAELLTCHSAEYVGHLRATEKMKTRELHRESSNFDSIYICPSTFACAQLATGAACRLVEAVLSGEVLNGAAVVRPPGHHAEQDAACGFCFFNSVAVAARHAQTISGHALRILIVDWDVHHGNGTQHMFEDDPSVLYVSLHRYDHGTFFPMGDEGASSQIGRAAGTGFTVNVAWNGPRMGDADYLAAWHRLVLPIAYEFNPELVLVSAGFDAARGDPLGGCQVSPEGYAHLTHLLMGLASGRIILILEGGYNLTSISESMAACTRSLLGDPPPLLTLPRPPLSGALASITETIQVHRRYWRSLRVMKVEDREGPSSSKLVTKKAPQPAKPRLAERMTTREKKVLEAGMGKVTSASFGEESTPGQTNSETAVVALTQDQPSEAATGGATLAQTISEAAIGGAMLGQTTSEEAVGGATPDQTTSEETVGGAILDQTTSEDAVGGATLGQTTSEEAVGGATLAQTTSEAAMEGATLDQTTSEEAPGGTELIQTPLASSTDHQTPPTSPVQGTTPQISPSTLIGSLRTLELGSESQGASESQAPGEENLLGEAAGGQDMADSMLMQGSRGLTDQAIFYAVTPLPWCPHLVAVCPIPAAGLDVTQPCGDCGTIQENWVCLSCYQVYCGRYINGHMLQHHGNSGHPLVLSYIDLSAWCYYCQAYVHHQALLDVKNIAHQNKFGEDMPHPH
API: value field is a number in nM; no unit string.

C#CCN(C)CCCOc1cc(NC(=O)CCCCCCCC(=O)NO)ccc1Cl	80
C#CCN(C)CCCOc1cc(NC(=O)CCCCCCCCC(=O)NO)ccc1Cl	160
C#CCN(C)CCCOc1cc(NCc2ccc(C(=O)NO)cc2)ccc1Cl	10

Record request: IC50 value, item C#CCN(C)CCCOc1cc(NC(=O)CCCCCCC(=O)NO)c(Cl)cc1Cl
60

Record request: IC50 value, item C#CCN(C)CCCOc1cc(NCc2ccc(/C=C/C(=O)NO)cc2)ccc1Cl
100

Record request: IC50 value, item C#CCN(C)CCCOc1cccc(NC(=O)CCCCCCC(=O)NO)c1Cl
90

Record request: IC50 value, item C#CCN(C)CCCOc1ccc(NC(=O)CCCCCCC(=O)NO)cc1Cl
6

Record request: IC50 value, item C#CCN(C)CCCOc1cc(NC(=O)CCCCCCC(=O)NO)ccc1Cl
10
